System: OVCAR-3 ovarian
Run Description: NCI-60 one-dose screen, 48 h
Conditions: 10 µM
Compounds without any hit were thinned out: in the full panel of roughly 83,000, 20% have a hit. Activity calls are given as the source filed them. The calls were made as follows: active = growth percent below 10; inactive = the rest.
Outcome codes: label 1 for active, label 0 for inactive

- Molecule: "Cc1cc2ccccc2c(O)c1C#N"
  Group Label: "label 0"
- Molecule: "COc1ccc(C(C)C=O)cc1 (stereo not given)"
  Group Label: "label 0"
- Molecule: "COC(=O)/C=C1\\Sc2cc(F)ccc2NC1=O"
  Group Label: "label 0"
- Molecule: "CC(C)=NNC(N)=S"
  Group Label: "label 0"
- Molecule: "N/N=C(/Cc1ccccc1)NNC(N)=S"
  Group Label: "label 0"
- Molecule: "O=C(O)C(Cc1ccccc1)C(=O)O"
  Group Label: "label 0"
- Molecule: "O=C1Cc2cc(O)ccc2O1"
  Group Label: "label 0"
- Molecule: "COc1cc(/C=C(\\C#N)C(=O)c2ccccc2)ccc1OCc1ccccc1"
  Group Label: "label 0"
- Molecule: "O=C(NCCNC(=O)c1ccc(Cl)cc1Cl)c1ccc(Cl)cc1Cl"
  Group Label: "label 0"
- Molecule: "O=C(N/N=C\\c1cc(Br)cc(Br)c1O)N/N=C/c1cc(Br)cc(Br)c1O"
  Group Label: "label 0"
- Molecule: "Oc1ccc(Cc2ccccc2)c2cccnc12"
  Group Label: "label 0"
- Molecule: "COc1cc(C(N)=O)cc(OC)c1OC"
  Group Label: "label 0"
- Molecule: "OCc1cccc2ccccc12"
  Group Label: "label 0"
- Molecule: "S=C1CCCCCN1"
  Group Label: "label 0"
- Molecule: "CC1=NN(c2ccccc2)C(=O)/C1=C\\N1CC(=O)NC1=S"
  Group Label: "label 0"
- Molecule: "OCCN(CCO)C(=S)S"
  Group Label: "label 0"
- Molecule: "C=CC(O)CCC (stereo not given)"
  Group Label: "label 0"
- Molecule: "c1ccc(Cc2ccccc2)cc1"
  Group Label: "label 0"
- Molecule: "O=[N+]([O-])c1ccc(N=Nc2ccccc2)cc1"
  Group Label: "label 0"
- Molecule: "C#CC(C(C)C)N(CCO)CCCC (stereo not given)"
  Group Label: "label 0"
- Molecule: "Cc1ccc(S(=O)(=O)O)c(C)c1"
  Group Label: "label 0"
- Molecule: "c1ccc(Sc2ccccc2)cc1"
  Group Label: "label 0"
- Molecule: "CC12CC3CC1C(C(=O)O2)C3C(=O)O (stereo not given)"
  Group Label: "label 0"
- Molecule: "CC(C)C(C#N)(C(C)C)C(C)C"
  Group Label: "label 0"
- Molecule: "O=S(=O)(O)CC(O)CN1CCN(CCO)CC1 (stereo not given)"
  Group Label: "label 0"
- Molecule: "Clc1ccc(-c2nnc(-c3cccc4ccccc34)o2)cc1"
  Group Label: "label 0"
- Molecule: "CC(=O)Cc1cc(-c2cc(CC(C)=O)[nH]n2)n[nH]1"
  Group Label: "label 0"
- Molecule: "O=[N+]([O-])c1cccc(N=Nc2ccc(O)cc2O)c1"
  Group Label: "label 0"
- Molecule: "Cc1ccccc1C1N=C2Oc3ccccc3C=C2C(=O)N1 (stereo not given)"
  Group Label: "label 1"
- Molecule: "CCOC(=O)CSc1c([N+](=O)[O-])ncn1C"
  Group Label: "label 0"
- Molecule: "CC1(C)N=C(N)N=C(N)N1c1ccc(Cl)cc1"
  Group Label: "label 0"
- Molecule: "CCOC(=O)/C(C#N)=C/c1cccc(C)c1"
  Group Label: "label 0"
- Molecule: "CC1(C)OC(=O)C(c2ccsc2)C(=O)O1"
  Group Label: "label 0"
- Molecule: "NCCC(=O)c1ccc(Cl)cc1"
  Group Label: "label 0"
- Molecule: "Cc1ccc(C)n1-c1ccsc1C(=O)NNC(=O)CCl"
  Group Label: "label 0"
- Molecule: "CCOC(=O)C1=C(Nc2ccc(Br)cc2)C(=O)N(CC)C1"
  Group Label: "label 0"
- Molecule: "CC1(c2ccccc2)NC(=O)NC1=O (stereo not given)"
  Group Label: "label 0"
- Molecule: "O=c1[nH][nH]c(=O)c2cc([N+](=O)[O-])ccc12"
  Group Label: "label 0"
- Molecule: "CCCCCC(C)(CC(=O)O)CC(=O)O"
  Group Label: "label 0"
- Molecule: "O=C(O)CCCc1ccccc1"
  Group Label: "label 0"
- Molecule: "Cc1ccc(Cl)cc1NC(=O)N(C)CCO"
  Group Label: "label 0"
- Molecule: "O=C1c2ccccc2C(=O)c2c1ccc(C(=O)O)c2[N+](=O)[O-]"
  Group Label: "label 0"
- Molecule: "N#CCCN(CCCN1CCOCC1)CN1C(=O)c2ccccc2C1=O"
  Group Label: "label 0"
- Molecule: "O=C(NCO)c1ccccc1"
  Group Label: "label 0"
- Molecule: "CC1(C)N=C(N)N=C(N)N1c1cccc(Br)c1"
  Group Label: "label 0"
